Biological target: human Bradykinin B1 receptor (Homo sapiens)
Construct: host or cells: CHO-K1
Sequence (P46663 1-353): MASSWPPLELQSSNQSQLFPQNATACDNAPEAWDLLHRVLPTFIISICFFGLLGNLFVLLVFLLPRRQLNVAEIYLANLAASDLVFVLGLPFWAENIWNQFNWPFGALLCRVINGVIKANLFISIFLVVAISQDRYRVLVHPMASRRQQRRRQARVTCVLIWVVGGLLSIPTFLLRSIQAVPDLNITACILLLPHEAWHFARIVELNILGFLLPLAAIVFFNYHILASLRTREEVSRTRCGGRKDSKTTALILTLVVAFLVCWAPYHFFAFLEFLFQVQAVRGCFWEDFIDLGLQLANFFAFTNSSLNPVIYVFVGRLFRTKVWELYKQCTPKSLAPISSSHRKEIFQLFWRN
Assay: Calcium flux Assay (FLIPR) with recombinant CHO-K1 cells expressing human Bradykinin B1 receptor, in presence (hB1 IC50) or absence (hB1 free IC50) of 0.1% BSA
Format: cell-based
Details: in absence of 0.1% BSA, read-out: hB1 free IC50
pIC50: −log10 of the molar value.
outcome.measure: pIC50

molecule="O=C(Nc1ccc(-n2cc(Cl)cn2)c(-c2nnn[nH]2)c1)C1(c2cccc(Cl)c2)CC1 [Example 391]" recorded_number=5.72

1: N#Cc1ncc(-c2ccc(NC(=O)C3(c4cccc(Cl)c4)CC3)cc2-c2nnn[nH]2)cn1 [Example 334]
2: O=C(Nc1ccc(-c2ccnc(C(F)F)c2)c(-c2nnn[nH]2)c1)C1(c2ccc(F)c(F)c2)CC1 [Example 206]
Exercise: Please indicate which entry, 1 or 2 , has the lower recorded pIC50 value. Mark your selection by writing its label.
Key: 2

A: O=C(Nc1ccc(-c2cc(F)cc(C(F)(F)F)c2)c(-c2nnn[nH]2)c1)C1(c2cccc(Cl)c2)CC1 [Example 130]
B: CCOc1ccc(-c2ccc(NC(=O)C3(c4ccc(F)cc4)CC3)cc2-c2nnn[nH]2)cn1 [Example 81]
Exercise: Please indicate which entry, A or B , has the lower recorded pIC50 value. Mark your selection by writing its label.
Key: A
(A: 6.44, B: 7.54)

---

biological target: human Bradykinin B1 receptor (Homo sapiens); construct: host or cells: CHO-K1; experiment: Calcium flux Assay (FLIPR) with recombinant CHO-K1 cells expressing human Bradykinin B1 receptor, in presence (hB1 IC50) or absence (hB1 free IC50) of 0.1% BSA; type: cell-based; details: in absence of 0.1% BSA, read-out: hB1 free IC50
outcome.measure: IC50 (nM)

Answered examples (5):
molecule=COc1ncccc1-c1ccc(NC(=O)C2(c3cccc(Cl)c3)CC2)cc1-c1nnn[nH]1 recorded_number=1620
molecule=COc1ccc(-c2ccc(NC(=O)C3(c4ccc(C(F)(F)F)cc4)CC3)cc2-c2nnn[nH]2)cc1OC recorded_number=5.7
molecule="CCC1CCN(c2ccc(NC(=O)C3(c4cccc(Cl)c4)CC3)cc2-c2nnn[nH]2)C1=O (centres unmarked)" recorded_number=1390
molecule=CCOc1ncc(-c2ccc(NC(=O)C3(c4cccc(Cl)c4)CC3)cc2-c2nnn[nH]2)cc1F recorded_number=14.2
molecule=CCOc1ccc(-c2ccc(NC(=O)C3(c4ccccc4F)CC3)cc2-c2nnn[nH]2)cn1 recorded_number=37.7

I: CCOc1ccc(-c2ccc(NC(=O)C3(c4cc(F)cc(F)c4)CC3)cc2-c2nnn[nH]2)cn1
II: O=C(Nc1ccc(-c2cc3c(Cl)nccc3o2)c(-c2nnn[nH]2)c1)C1(c2cccc(Cl)c2)CC1
III: Cn1ncc2ccc(-c3ccc(NC(=O)C4(c5ccc(C(F)(F)F)cc5F)CC4)cc3-c3nnn[nH]3)cc21
IV: O=C(Nc1ccc(-c2ccc(Cl)nc2)c(-c2nnn[nH]2)c1)C1(c2cccc(Cl)c2)CC1
Exercise: Ordering criterion: IC50; begin with the maximum. Give the labels in the order requested.
Key: II, IV, I, III

Attribution: patent US20210317092A1
